- measurement target: PBPb-I domain of CdgH (residues 46–250) (Vibrio cholerae)
- Sequence (Q9KT38 46-250 limits assumed): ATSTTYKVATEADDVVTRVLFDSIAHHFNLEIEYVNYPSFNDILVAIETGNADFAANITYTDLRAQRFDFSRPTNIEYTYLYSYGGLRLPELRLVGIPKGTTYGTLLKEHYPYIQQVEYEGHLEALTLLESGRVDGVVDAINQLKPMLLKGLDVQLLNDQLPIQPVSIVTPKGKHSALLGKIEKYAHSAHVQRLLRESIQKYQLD
- Assay type: binding
- measurement setup: pH 8
// reported ΔH per item
endpoint: ΔH (kcal/mol)

[
  {
    "molecule": "NC(=O)CC[C@H](N)C(=O)O [L-Gln, L-glutamine]",
    "endpoint": "ΔH",
    "value units": "kcal/mol",
    "value": -3.57
  },
  {
    "molecule": "NCCC[C@H](N)C(=O)O [L-Orn, L-ornithine]",
    "endpoint": "ΔH",
    "value units": "kcal/mol",
    "value": -3.61
  },
  {
    "molecule": "NCCCC[C@H](N)C(=O)O [L-Lys, L-lysine]",
    "endpoint": "ΔH",
    "value units": "kcal/mol",
    "value": -6.02
  },
  {
    "molecule": "N=C(N)NCCC[C@H](N)C(=O)O [L-Arg, L-arginine]",
    "endpoint": "ΔH",
    "value units": "kcal/mol",
    "value": -12.87
  },
  {
    "molecule": "N[C@@H](Cc1c[nH]cn1)C(=O)O [L-His, L-histidine]",
    "endpoint": "ΔH",
    "value units": "kcal/mol",
    "value": -7.90
  }
]

----------
- measurement target: PBPb-I domain of CdgH (residues 46–250) (Vibrio cholerae)
- Format: binding
- measurement setup: pH 8; read-out: Kd

[
  {
    "smiles text": "NCCC[C@H](N)C(=O)O",
    "measurement target": "PBPb-I domain of CdgH (residues 46–250) (Vibrio cholerae)",
    "Kd / µM": 4.17
  }
]
